experiment: Restrictive medium S. cerevisiae growth inhibition, OD615, pilot screen of yeast lifespan reduction project, restrictive growth control (AID 706); settings: OD615, 48 h, at 10 µM;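 also: modified DeaD lifespan yeast strain shifted to restrictive glucose medium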
Activity calls are given as the source filed them.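 The calls were made as follows: active = growth inhibition above a set limit, 3 SD over mean compound inhibition, in both replicates (cut at about 43% in these data); inconclusive = above the limit in only one replicate; inactive = at or below the limit in both replicates.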
// allowed return values: active, inactive

// below: answered compounds
COc1ccc(Cl)cc1C(=O)NCC(C)C
inactive
COc1ccc(NC(=O)CSc2nnc(-c3ccc(C)cc3)n2N)cc1
inactive
CCN1C(=O)CC(N2CCN(c3ccc(Cl)cc3)CC2)C1=O (configuration not stated)
inactive
Cc1cc(Nc2ccc(Br)c(C)c2)n2nc(C)nc2n1
inactive
CCOC(=O)N1CCN(C(=O)C2CCN(Cc3nc(-c4ccccc4C)oc3C)CC2)CC1
inactive

# outcome recorded in this test, key = CCN1CCCC1CNC(=O)c1cc2c(-c3ccc(Cl)cc3)nn(C)c2s1 (configuration not stated) inactive

How about CC(C)CNC1=CC(=O)CC(c2ccco2)C1 (configuration not stated) ? inactive

* * *

assay: inhibitors of the yeast RAM network, pilot screen, dse1pr::URA3 reporter, 5-FOA selection (AID 869);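 also: 0% = DMSO wells with no growth and 100% = 10 µM 1-NA-PP1 with full growth; RAM network block rescues cells from 5-FOA so hits raise OD615 growth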; details: S. cerevisiae dse1pr::URA3 5-FOA growth, OD615, 2 d; at 10 µM; stronger effect = higher value; strain carries analog-sensitive mutant Cbk1 kinase
Param threshold (2%) applies to inhibition; output Y when value >= threshold, N when value < threshold.

// below: answered molecules
CC1CCN(c2ncnc3c2cnn3-c2ccccc2)CC1
N
Cc1nc(SC(C)C)[nH]c(=O)c1Cc1ccccc1
N

Determine whether this molecule has inhibition no lower than 2%: CCN1CCN(C(c2ccccc2)c2sc3nc(C)nn3c2O)CC1 (stereo not drawn) N

How about `CCOCCCNC(=O)CCCn1nc(C)n2c(cc3sccc32)c1=O` ? N

* * *

assay: inhibitors of the yeast RAM network, pilot screen, dse1pr::URA3 reporter, 5-FOA selection (AID 869);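 also: 0% = DMSO wells with no growth and 100% = 10 µM 1-NA-PP1 with full growth; RAM network block rescues cells from 5-FOA so hits raise OD615 growth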; details: S. cerevisiae dse1pr::URA3 5-FOA growth, OD615, 2 d; at 10 µM; stronger effect = higher value; strain carries analog-sensitive mutant Cbk1 kinase
Param threshold (2%) applies to inhibition; output 1.0 when value >= threshold, 0.0 when value < threshold.

O=C(CCCC(=O)NCC1CCCO1)NCC1CCCO1 (stereo unspecified)
0.0
CCc1ccc(NS(=O)(=O)c2cc(OC)ccc2OC)cc1
0.0
O=C(Cn1nc(Cc2cccnc2)c2ccccc2c1=O)NCc1ccc2c(c1)OCO2
0.0
CCOc1ccc(C(=O)Nc2c3c(nn2-c2cccc(C)c2C)CS(=O)C3)cc1 (stereo unspecified)
0.0
CCOC(=O)CNC(=O)c1c2c(nc3ccccc13)CCCC2
1.0
O=C1CCCN1CC(CN1CCOCC1)Sc1nnnn1-c1ccccc1 (stereo unspecified)
0.0
O=C(C1CCN(S(=O)(=O)c2cccc3cccnc23)CC1)N1CCN(C2CCCC2)CC1
0.0
Cc1ccc(C(=O)NCCn2cc(SCC(=O)Nc3cc(C)on3)c3ccccc32)cc1
0.0

Determine whether this compound has inhibition no lower than 2%: `O=C(CN(c1ccc(F)cc1)S(=O)(=O)c1ccc2c(c1)OCCO2)N1CCOCC1` 0.0

How about `NC(=O)c1nc(C2CCCCC2)nc2c1[nH]c(=O)n2-c1ccc(F)cc1` ? 0.0

How about `CC1=CS/C(=C(/C#N)C(=O)NCc2ccco2)N1c1ccccc1` ? 1.0

How about Cc1ccc(S(=O)(=O)N2C3C=CC(C3)C2C(=O)O)cc1 (stereo unspecified) ? 0.0

How about `COc1ccc(Cl)cc1C(=O)N(Cc1nc(-c2cccc(C)c2)no1)C(C)C` ? 1.0

* * *

assay: RAM signaling pathway blockade in yeast – S. cerevisiae, Pdr1DBD-CYC8 efflux-inhibited sensitized strain, primary screen (AID 1298);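 also: 0% = DMSO untreated cells without growth and 100% = 10 µM 1-NA-PP1 full growth; higher means more yeast growth rescued from 5-FOA killing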; conditions: S. cerevisiae cbk1-as DSE1-URA3 strain, 5-FOA growth OD615, 2 d; at 50 µM; stronger effect = higher value
Param threshold (2%) applies to RAM network inhibition; output 1 (yes) when value >= threshold, 0 (no) when value < threshold.

// below: answered compounds
CCOC(=O)c1c(NC(=O)c2cc(C3CC3)on2)sc2c1CCCC2
1 (yes)
CC(c1ccccc1)C(CC(=O)O)C(=O)NC1CCCCC1 (centres undefined)
0 (no)
Cc1ccc(NS(=O)(=O)c2cc(C(=O)O)ccc2Cl)cc1
1 (yes)
COc1ccc(NC2=CC(=O)CC(C)(C)C2)cc1OC
0 (no)
CC1c2[nH]c3ccccc3c2CCN1S(C)(=O)=O (centres undefined)
0 (no)
CCCc1n[nH]c2c1C(=O)CC(C)(C)C2
1 (yes)
Cc1nc(C)c(C(=O)Nc2cccc(C)c2C)o1
0 (no)
CC(/C=C/c1ccccc1)=N/O
1 (yes)

Turning now to a further record.
Determine whether this compound has RAM network inhibition no lower than 2%: `Cc1ccnc(SCCn2c(N(C)Cc3ccccc3)nc3c2c(=O)n(C)c(=O)n3C)n1` 1 (yes)

* * *

experiment: Restrictive medium S. cerevisiae growth inhibition, OD615, pilot screen of yeast lifespan reduction project, restrictive growth control (AID 706); settings: OD615, 48 h, at 10 µM, stronger effect = higher value;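 also: modified DeaD lifespan yeast strain shifted to restrictive glucose medium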
Param threshold (-10%) applies to growth inhibition; output Criterion met when value >= threshold, Criterion not met when value < threshold.

Cc1c(C(=O)Nc2ccc(F)cc2)oc2ccc(S(=O)(=O)N3CCCC3)cc12
Criterion met
O=C(CSc1ncnc2c1oc1ccccc12)NCc1ccc(F)cc1
Criterion met

Turning now to a further record.
Determine whether this compound has growth inhibition no lower than -10%: COCCOC(=O)C1=C(C)NC(=O)NC1c1ccc(OC(=O)c2ccco2)c(OC)c1 (stereo unspecified) Criterion not met

* * *

test: growth suppression of beta-catenin knockout HCT116, pilot screen, human colon tumor cells (AID 823); conditions: CellTiter-Glo, 60 h, at 10 µM, stronger effect = lower value;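 also: 0% = wells killed by 20 µM Hyamine and 100% = untreated DMSO cell wells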
Results filed as inconclusive are left out.
MEASURE: viability (%)
Just the number please, in %, no unit attached.

CC(=O)Nc1cc2c(cc1C(=O)c1ccccc1)OCCO2
95.2
CCCCSc1nc2c(c(=O)n1CC)SC(C)C2 (centres undefined)
87.3
CCCCn1c(CN2CCN(C(=O)c3ccco3)CC2)nc2c1c(=O)n(C)c(=O)n2C
101

Turning now to a further record.
Quick one: viability of `COc1ccc(N(CC(=O)Nc2ccc3c(c2)OCO3)S(C)(=O)=O)c(OC)c1` ? 97.9

* * *

assay: RAM signaling pathway blockade in yeast – S. cerevisiae, Pdr1DBD-CYC8 efflux-inhibited sensitized strain, primary screen (AID 1298);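 also: 0% = DMSO untreated cells without growth and 100% = 10 µM 1-NA-PP1 full growth; higher means more yeast growth rescued from 5-FOA killing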; details: S. cerevisiae cbk1-as DSE1-URA3 strain, 5-FOA growth OD615, 2 d; at 50 µM; stronger effect = higher value
MEASURE: RAM network inhibition (%)
Just the number please, in %, no unit attached.

Recorded results for 5 compounds are shown here.
COc1ccc(C)cc1NC(=O)CN(c1ccc(F)cc1)S(C)(=O)=O
4.09
COC(=O)c1cc(OC)c(OC)cc1-n1cnc2cc(OC)c(OC)cc2c1=O
0.92
O=c1cc(N2CCOCC2)[nH]c(=O)n1Cc1ccc(F)cc1
-0.98
O=C(NC1CCCC1)c1ccc(CS(=O)(=O)c2ccc(Br)cc2)o1
1.03
CCN(CCN(C)C)C(=O)Cn1ncc2c1-c1cc(C)ccc1OC2
2.3

Quick one: RAM network inhibition of `Cn1cccc1Cc1nnc(SCC(=O)N2CCCC2)n1CCc1ccccc1` ? 1.63

* * *

test: growth suppression of beta-catenin knockout HCT116, pilot screen, human colon tumor cells (AID 823); conditions: CellTiter-Glo, 60 h, at 10 µM;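 also: 0% = wells killed by 20 µM Hyamine and 100% = untreated DMSO cell wells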
Results filed as inconclusive are left out. Active and inactive are the calls of the source.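 Rule for the calls: active = cell viability at or below a set limit in both duplicate runs, the limit being the all-compound median minus 4 SD (cut at about 23% in these data, passing the limit was not always enough); inconclusive = no clear call, values can overlap the other calls; inactive = the rest.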
// allowed return values: True = active, False = inactive

O=S(=O)(NC1c2cccc3cccc(c23)C1N1CCNCC1)c1ccccc1 (configuration not stated)
False
CCOC(=O)N1CCN(c2c(NCc3ccccn3)c(=O)c2=O)CC1
False
Cc1nc2c(c(C)nn2-c2ccccc2)c(C)c1Cl
False
CCOC(=O)N1CCC(N2Cc3cccc(C(=O)NCc4ccccn4)c3C2=O)CC1
False
CCCCOC(=O)Nc1nc(CC(=O)OCC)cs1
False

# outcome recorded in this test, key = `CN1CCN(c2cc(=O)n(C3CCCCC3)c(=O)[nH]2)CC1` False

How about CCOc1ccccc1N1C(=O)CC(Nc2ccc(N3CCOCC3)cc2)C1=O (configuration not stated) ? False

How about `c1ccc(-n2cnnc2SCc2cn3ccccc3n2)cc1` ? False

How about `CN1CCN(CCNC(=O)c2cc3c(=O)n(C)c4ccccc4c3n2C)CC1` ? False

How about `CC1(C)Cc2c(c(N3CCOCC3)nc3sc(C(=O)N4CCCCC4)c(N)c23)CO1` ? False

* * *

Reported growth inhibition is given for each of the following compounds.
assay: Restrictive medium S. cerevisiae growth inhibition, OD615, pilot screen of yeast lifespan reduction project, restrictive growth control (AID 706); conditions: OD615, 48 h, at 10 µM, stronger effect = higher value;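 also: modified DeaD lifespan yeast strain shifted to restrictive glucose medium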
Just the number please, in %, no unit attached.

Recorded results for 3 compounds are shown here.
COC(=O)C1C(C(C)C)N(c2ccccc2)OC1(C)O (stereo not given)
-7.98
Cc1nn(Cc2ccccc2)c(N)c1-c1ccccc1
-9.23
COc1cccc(-n2c(Cc3cc(=O)[nH]c(=O)[nH]3)nnc2SCc2cccnc2)c1
-2.88

Quick one: growth inhibition of `O=C(CSc1nc(-c2ccco2)cc(C(F)(F)F)n1)N1CCN(Cc2ccccc2)CC1` ? -13.4

How about COc1ccc(CCC(C(O)C(F)(F)F)S(=O)c2ccccc2)cc1 (stereo not given) ? -15.5

This collection of values is drawn from PubChem BioAssay.
